Ref: PubChem BioAssay (NCI)

Test system: HCC-2998 colon
experiment: NCI-60 one-dose screen, 48 h
experimental context: 10 µM unless noted
This is part of a sample that, as a whole, favours compounds with a hit. Of some 83,000 tested, about 20% had one in any assay. Activity calls are given as the source filed them. Rule for the calls: active = growth percent below 10; inactive = the rest.
Possible outcomes: 1 (yes) (active), 0 (no) (inactive)

>  <compound>
CC1=C(O)C(=O)CC1

>  <answer label>
0 (no)

$$$$
>  <compound>
CC(C)CCSc1nc(-c2ccc(F)cc2)c(C#N)c(N2CCN(C)CC2)n1

>  <answer label>
0 (no)

$$$$
>  <compound>
COc1ccc(C(=O)N2N=C(c3ccc(F)cc3)CC2c2cn(-c3ccccc3)nc2-c2ccccc2)cc1 (stereo not given)

>  <answer label>
0 (no)

$$$$
>  <compound>
CCOC(=O)c1cc(C(=O)OCC)c(C)nc1C

>  <answer label>
0 (no)

$$$$
>  <compound>
C=C1C(=O)O[C@H]2[C@H]1CC/C(COC(=O)NCc1cn(C)c3ccccc13)=C\CC[C@@]1(C)O[C@@H]21

>  <answer label>
0 (no)

$$$$
>  <compound>
Cc1[nH]c2ccccc2c1C1=CC(=O)C=CC1=O

>  <answer label>
0 (no)

$$$$
>  <compound>
COc1cc(C2CC(c3ccc(Cl)cc3)=NN2C=O)ccc1Oc1ccnc2cc(Cl)ccc12 (stereo not given)

>  <answer label>
0 (no)

$$$$
>  <compound>
COc1cc2ncnc(Nc3ccc(S(=O)(=O)Nc4nccs4)cc3)c2cc1OCCCN1CCOCC1

>  <answer label>
0 (no)

$$$$
>  <compound>
NC(CCC(=O)NC(CS)C(=O)NCC(=O)O)C(=O)O (stereo not given)

>  <answer label>
0 (no)

$$$$
>  <compound>
CCCCCCCC/C=C/CCCCCCCC1=NC(C)(C)CN1C(C)C

>  <answer label>
1 (yes)

$$$$

* * *

System: SW-620 colon
experiment: NCI-60 one-dose screen, 48 h (100 = growth as untreated, 0 = no growth, -100 = all killed)
experimental context: 10 µM unless noted
This is part of a sample that, as a whole, favours compounds with a hit. Of some 83,000 tested, about 20% had one in any assay. The source made the active and inactive calls. How the source made its calls: active means growth percent below 10; inactive means the rest.
Measured growth of individual entries

>  <compound>
CNC(=O)c1c(NC(=O)c2ccc(C(C)C)cc2)sc2c1CCC(=O)C2

>  <growth>
-35.5% (active)

$$$$
>  <compound>
CC(C)CCSc1nc(Nc2ccccc2)c(C#N)c(-c2ccc(F)cc2)n1

>  <growth>
46.5% (inactive)

$$$$
>  <compound>
CCN(CC)c1ccc(/C=N/NC(=O)c2ccc(S(C)(=O)=O)cc2)c(O)c1

>  <growth>
33.1% (inactive)

$$$$
>  <compound>
Nc1c(Br)cc2c(c1Br)Cc1cc(Cl)ccc1-2

>  <growth>
98.2% (inactive)

$$$$
>  <compound>
CCCCCCCCCCCC1=NC(C)(C)CN1C(C)C

>  <growth>
47.8% (inactive)

$$$$
>  <compound>
c1ccc2oc(-c3cnc4nonc4n3)cc2c1

>  <growth>
94% (inactive)

$$$$
>  <compound>
O=C1c2cccc3cccc(c23)C(=O)N1CCCCCCCCCCN1C(=O)c2cccc3cccc(c23)C1=O

>  <growth>
104% (inactive)

$$$$
>  <compound>
C=C1C(=O)O[C@H]2[C@H]1CC/C(COC(=O)NCc1c[nH]c3ccc(OC)cc13)=C\CC[C@@]1(C)O[C@@H]21

>  <growth>
-57.6% (active)

$$$$
>  <compound>
S=C(S)Oc1cccc2cccnc12

>  <growth>
105% (inactive)

$$$$
>  <compound>
c1coc(CNc2c3ccccc3nc3ccccc23)c1

>  <growth>
42.3% (inactive)

$$$$
>  <compound>
COc1cc([N+](=O)[O-])cc(OC)c1OC

>  <growth>
105% (inactive)

$$$$
>  <compound>
CCN(CC)CC(=O)Nc1c(C)cc(C(=O)NN)cc1C

>  <growth>
101% (inactive)

$$$$
>  <compound>
Cc1c(C(N)=O)sc2ncn(CC(=O)NN=C3CCCCC3)c(=O)c12

>  <growth>
97.4% (inactive)

$$$$
>  <compound>
O=C(CC(=O)c1cccc(Cl)c1)c1cccc(Cl)c1

>  <growth>
30.7% (inactive)

$$$$
>  <compound>
COc1cccc(C2C(C#N)=C(N)Oc3cc4c(cc32)OCO4)c1 (configuration not stated)

>  <growth>
26.9% (inactive)

$$$$
>  <compound>
CCCCn1cnc2c(SCc3ccc([N+](=O)[O-])cc3)nc(N)nc21

>  <growth>
109% (inactive)

$$$$
>  <compound>
O=C(Nc1ccncc1)C(=O)c1cn(S(=O)(=O)c2cccc(Cl)c2F)c2ccccc12

>  <growth>
59.6% (inactive)

$$$$
>  <compound>
CCCCc1nc(Cl)c(C2CC(c3ccc(S(N)(=O)=O)cc3)=NN2c2ccc(C#N)cc2)[nH]1 (configuration not stated)

>  <growth>
91.8% (inactive)

$$$$
>  <compound>
COc1ccc([C@H]2c3[nH]c4ccccc4c3C[C@H]3C(=O)N(CCCCCCC(=O)NO)CC(=O)N23)cc1

>  <growth>
4% (active)

$$$$
>  <compound>
CCc1onc(-c2ccc(OC)cc2)c1-c1ccccc1OCCN(CC)CC

>  <growth>
94.7% (inactive)

$$$$
>  <compound>
COC(=O)[C@H](Cc1cn(C)cn1)NC(=O)[C@H](CC(C)C)NC(=O)Nc1cc(C(F)(F)F)cc(C(F)(F)F)c1

>  <growth>
-43.6% [100 µM] (active)

$$$$
>  <compound>
S=C(Cc1ccccc1)N1CCN(c2ccccc2Cl)CC1

>  <growth>
103% (inactive)

$$$$
